Exercise: state measured residual activity for each of the molecules provided.
assayedTarget: Serine/threonine-protein kinase Sgk3 (Homo sapiens)
measurementContext: at 1 µM
One number for each entry, in %.

Some molecules with recorded residual activity:
Please list residual activity recorded for the molecule Cc1nc(-c2ccccc2)c(-c2ccncc2)o1
108

Give the reported value of residual activity for this record: CO[C@H]1[C@@H](OC)C[C@H](C)[C@@H](OC)C2=CC(=O)C=C(NC(=O)/C(C)=C/C=C/[C@H](OC)[C@@H](OC(N)=O)/C(C)=C/[C@@H]1C)C2=O
95

Look up and state reported residual activity for Oc1ccc(Nc2nc(-c3ccc(Cl)cc3)cs2)cc1
112

Dear colleague, please send me the reported residual activity for O=c1c2ccccc2[nH]c(=S)n1CCN1CCC(=C(c2ccc(F)cc2)c2ccc(F)cc2)CC1 when you can.
118

Provide one value: measured residual activity of Cn1sc(=O)n(Cc2ccccc2)c1=O
99

I need residual activity for every entry listed below, if you could help.
1. O=[N+]([O-])/C=C/c1ccc2c(c1)OCO2
2. Cc1ccc(S(=O)(=O)/C=C/C#N)cc1
3. Cn1cc(/C=C2\C(=O)Nc3ccc(S(N)(=O)=O)cc32)c2ccccc21
4. C[C@@H](N)[C@H]1CC[C@H](C(=O)Nc2ccncc2)CC1
5. O=C1NC(=O)c2c1c1c3ccccc3n3c1c1c2c2ccccc2n1C1CCC3O1

1: 110; 2: 103; 3: 112; 4: 101; 5: 98

---

Field: residual activity. Provide a value for each of the compounds that follow.
assayedTarget: CDK9/cyclin T1 (Homo sapiens) (UniProt O60563+P50750)
measurementContext: at 1 µM
One number for each entry, in %.

Solved entries:
Return residual activity (reported value) for this compound: O=C1NC(=O)c2c1c1c3ccccc3n3c1c1c2c2ccccc2n1C1CCC3O1
71

Please list residual activity recorded for the compound O=C1Nc2ccc3ncsc3c2/C1=C/c1c[nH]cn1
5

// for each compound in input: emit residual activity
1. COC(=O)[C@@]1(O)C[C@H]2O[C@]1(C)n1c3ccccc3c3c4c(c5c6ccccc6n2c5c31)C(=O)NC4
2. COc1cc2nccc(Oc3ccc(NC(=O)Nc4cc(C)on4)c(Cl)c3)c2cc1OC
3. CC(C)[C@H](CO)Nc1nc(Nc2cccc(Cl)c2)c2ncn(C(C)C)c2n1

[10, 76, 23]

---

assayedTarget: Serine/threonine-protein kinase 24 (Homo sapiens) (UniProt Q9Y6E0)
Sequence (Q9Y6E0 whole entry, looked up): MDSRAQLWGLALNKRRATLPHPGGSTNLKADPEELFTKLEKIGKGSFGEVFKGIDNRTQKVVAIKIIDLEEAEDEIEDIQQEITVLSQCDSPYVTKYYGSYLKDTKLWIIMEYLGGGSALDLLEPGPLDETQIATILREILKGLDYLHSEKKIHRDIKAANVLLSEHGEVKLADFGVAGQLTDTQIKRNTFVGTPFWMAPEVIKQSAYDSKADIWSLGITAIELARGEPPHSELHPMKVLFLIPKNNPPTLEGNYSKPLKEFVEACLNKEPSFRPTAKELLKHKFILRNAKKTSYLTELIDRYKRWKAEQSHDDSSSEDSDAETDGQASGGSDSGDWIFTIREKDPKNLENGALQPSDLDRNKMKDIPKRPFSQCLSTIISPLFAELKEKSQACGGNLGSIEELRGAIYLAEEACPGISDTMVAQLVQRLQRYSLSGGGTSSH
measurementContext: at 10 µM
hey, just use Fulfilled if measured residual activity is less than 70%, otherwise Not fulfilled

Worked cases, answers included:
Quick check: residual activity of CC(C)(C)c1cc(C=C(C#N)C#N)cc(Br)c1O under 70%?
Not fulfilled

Is 70% strictly greater than the compound's reported residual activity? compound: COc1ccc2c(c[n+](C)c3c4cc5c(cc4ccc23)OCO5)c1OC
Not fulfilled

Consider the compound O=C1Nc2ccc3ncsc3c2/C1=C/c1c[nH]cn1 . Is its residual activity strictly less than 70%?
Fulfilled

# TODO verify residual activity < 70% strictly for this compound: N/C(=N\[N+](=O)[O-])N/N=C\c1ccc(-c2cccc([N+](=O)[O-])c2)o1
Not fulfilled

In the record for O=[N+]([O-])/C=C/c1ccc2c(c1)OCO2 , is residual activity less than 70%?
Not fulfilled

Consider the compound C[S+]([O-])c1ccc(-c2nc(-c3ccc(F)cc3)c(-c3ccncc3)[nH]2)cc1 (configuration not stated) . Is its residual activity strictly less than 70%?
Not fulfilled

As a next step, examine the compound that follows.
Please determine if CC(C)[C@H](CO)Nc1nc(Nc2cccc(Cl)c2)c2ncn(C(C)C)c2n1 is below 70% in terms of residual activity.
Fulfilled

---

assayedTarget: Platelet-derived growth factor receptor alpha (Homo sapiens) (UniProt P16234)
Sequence (P16234 whole entry): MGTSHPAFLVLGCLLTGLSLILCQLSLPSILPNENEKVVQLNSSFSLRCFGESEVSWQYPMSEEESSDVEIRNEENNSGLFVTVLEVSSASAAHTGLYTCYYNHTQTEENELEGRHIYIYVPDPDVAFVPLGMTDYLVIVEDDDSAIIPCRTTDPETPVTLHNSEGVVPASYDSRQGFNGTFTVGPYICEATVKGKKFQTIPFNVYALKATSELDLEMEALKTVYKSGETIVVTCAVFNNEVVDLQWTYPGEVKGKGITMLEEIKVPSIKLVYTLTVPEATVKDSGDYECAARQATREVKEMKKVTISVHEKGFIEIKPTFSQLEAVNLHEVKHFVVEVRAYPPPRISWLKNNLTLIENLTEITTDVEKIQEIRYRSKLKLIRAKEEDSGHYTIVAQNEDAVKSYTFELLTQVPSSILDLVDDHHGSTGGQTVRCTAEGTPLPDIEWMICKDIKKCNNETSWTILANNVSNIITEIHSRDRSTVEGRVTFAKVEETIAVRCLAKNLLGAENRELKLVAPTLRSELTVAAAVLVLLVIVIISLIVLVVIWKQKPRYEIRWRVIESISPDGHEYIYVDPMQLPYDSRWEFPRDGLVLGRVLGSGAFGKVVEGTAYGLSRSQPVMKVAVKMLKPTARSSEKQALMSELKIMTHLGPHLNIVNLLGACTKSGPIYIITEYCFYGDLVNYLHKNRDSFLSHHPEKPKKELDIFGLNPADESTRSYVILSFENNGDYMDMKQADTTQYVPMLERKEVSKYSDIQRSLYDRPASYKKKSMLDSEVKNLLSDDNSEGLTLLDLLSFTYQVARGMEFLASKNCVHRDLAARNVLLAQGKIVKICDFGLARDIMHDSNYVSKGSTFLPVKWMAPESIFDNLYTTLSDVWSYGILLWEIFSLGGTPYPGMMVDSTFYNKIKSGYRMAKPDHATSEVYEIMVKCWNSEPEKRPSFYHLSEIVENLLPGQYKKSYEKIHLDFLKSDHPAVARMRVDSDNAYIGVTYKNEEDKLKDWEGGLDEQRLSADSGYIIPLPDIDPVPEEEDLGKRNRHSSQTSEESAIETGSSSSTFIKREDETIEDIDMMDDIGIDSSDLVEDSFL
measurementContext: at 1 µM
Give residual activity for every item shown.
Numbers only, in %.

Please review the following examples before continuing.
Print Platelet-derived growth factor receptor alpha (Homo sapiens) (UniProt P16234) residual activity for O=C1c2ccccc2-c2nc3nnnn3nc21 .
128

State residual activity (Platelet-derived growth factor receptor alpha (Homo sapiens) (UniProt P16234)) of CCn1cnc2c(Nc3cccc(Cl)c3)nc(N[C@@H]3CCCC[C@@H]3N)nc21 .
100

Name the recorded residual activity of O=[N+]([O-])/C=C/c1ccc2c(c1)OCO2 , assay system Platelet-derived growth factor receptor alpha (Homo sapiens) (UniProt P16234).
114

Find residual activity for C[S+]([O-])c1ccc(-c2nc(-c3ccc(F)cc3)c(-c3ccncc3)[nH]2)cc1 (stereo not drawn) on Platelet-derived growth factor receptor alpha (Homo sapiens) (UniProt P16234) and write it down.
110

Print Platelet-derived growth factor receptor alpha (Homo sapiens) (UniProt P16234) residual activity for CC(C)(C)c1cc(C=C(C#N)C#N)cc(Br)c1O .
120

Give one value of residual activity per listed compound.
1. O=c1[nH]c2ccccc2n1C1CCN(Cc2ccc(-c3nc4cc5[nH]cnc5cc4nc3-c3ccccc3)cc2)CC1
2. COc1cc2ncnc(Nc3ccc(OCc4ccccc4)cc3)c2cc1OC
3. N/C(=N\[N+](=O)[O-])N/N=C\c1ccc(-c2cccc([N+](=O)[O-])c2)o1

127
95
83

---

Answer each item with its documented residual activity.
assayedTarget: Serine/threonine-protein kinase BRSK2 (Homo sapiens)
measurementContext: at 10 µM
Give bare numbers, in %.

Note down residual activity recorded for O=C1NC(=O)c2c1c1c3ccccc3n3c1c1c2c2ccccc2n1C1CCC3O1
52

Give the measured residual activity for C[S+]([O-])c1ccc(-c2nc(-c3ccc(F)cc3)c(-c3ccncc3)[nH]2)cc1 (configuration not stated)
90

Answer with the recorded residual activity of O=c1[nH]c2ccccc2n1C1CCN(Cc2ccc(-c3nc4cc5[nH]cnc5cc4nc3-c3ccccc3)cc2)CC1 only.
133

Retrieve residual activity measured for COc1ccc2c(c1)/C(=C/c1cnc[nH]1)C(=O)N2 and print it.
7

// Input: COC(=O)[C@@]1(O)C[C@H]2O[C@]1(C)n1c3ccccc3c3c4c(c5c6ccccc6n2c5c31)C(=O)NC4 . Output its residual activity only.
0

Give measured residual activity for every item shown.
1. O=C1Nc2ccc3ncsc3c2/C1=C/c1c[nH]cn1
2. CCc1nc(-c2ccc(OC)cc2)[nH]c1-c1ccncc1

1
79

---

assayedTarget: Protein-tyrosine kinase 6 (Homo sapiens) (UniProt Q13882)
Sequence (Q13882 whole entry, looked up): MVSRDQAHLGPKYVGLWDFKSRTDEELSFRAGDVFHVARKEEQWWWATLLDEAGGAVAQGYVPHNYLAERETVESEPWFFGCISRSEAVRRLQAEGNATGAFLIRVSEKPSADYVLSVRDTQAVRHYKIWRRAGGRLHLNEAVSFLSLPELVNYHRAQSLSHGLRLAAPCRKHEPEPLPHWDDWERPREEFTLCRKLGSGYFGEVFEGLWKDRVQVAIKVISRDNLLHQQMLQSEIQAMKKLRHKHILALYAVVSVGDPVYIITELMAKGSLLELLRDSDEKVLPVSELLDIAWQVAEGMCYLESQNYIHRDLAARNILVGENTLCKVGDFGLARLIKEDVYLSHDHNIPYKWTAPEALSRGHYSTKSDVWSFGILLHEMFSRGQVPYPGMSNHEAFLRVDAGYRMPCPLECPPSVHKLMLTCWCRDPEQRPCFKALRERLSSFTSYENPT
measurementContext: at 10 µM
quantityKind: residual activity (%)
Answers are plain numbers, in %.

Known residual activity results, listed for orientation:
Give reported residual activity for O=C1Nc2ccc3ncsc3c2/C1=C/c1c[nH]cn1 (Protein-tyrosine kinase 6 (Homo sapiens) (UniProt Q13882))
34

GET residual activity | system: Protein-tyrosine kinase 6 (Homo sapiens) (UniProt Q13882) | item: N/C(=N\[N+](=O)[O-])N/N=C\c1ccc(-c2cccc([N+](=O)[O-])c2)o1
96

Please report residual activity with Protein-tyrosine kinase 6 (Homo sapiens) (UniProt Q13882) for item CCn1cnc2c(Nc3cccc(Cl)c3)nc(N[C@@H]3CCCC[C@@H]3N)nc21 .
34

Find residual activity for COc1ccc2c(c1)/C(=C/c1cnc[nH]1)C(=O)N2 on Protein-tyrosine kinase 6 (Homo sapiens) (UniProt Q13882) and write it down.
71

Lab note: Protein-tyrosine kinase 6 (Homo sapiens) (UniProt Q13882) assay, enter residual activity for C[S+]([O-])c1ccc(-c2nc(-c3ccc(F)cc3)c(-c3ccncc3)[nH]2)cc1 (configuration not stated) here
7

Consider the compound c1cc(-c2cnn3cc(-c4ccc(OCCN5CCCCC5)cc4)cnc23)ccn1 tested on Protein-tyrosine kinase 6 (Homo sapiens) (UniProt Q13882); state its residual activity.
7

***
Retrieve residual activity on Protein-tyrosine kinase 6 (Homo sapiens) (UniProt Q13882); query COC(=O)[C@@]1(O)C[C@H]2O[C@]1(C)n1c3ccccc3c3c4c(c5c6ccccc6n2c5c31)C(=O)NC4
1

---

assayedTarget: Aurora kinase B (Homo sapiens) (UniProt Q96GD4)
Sequence (Q96GD4 whole entry): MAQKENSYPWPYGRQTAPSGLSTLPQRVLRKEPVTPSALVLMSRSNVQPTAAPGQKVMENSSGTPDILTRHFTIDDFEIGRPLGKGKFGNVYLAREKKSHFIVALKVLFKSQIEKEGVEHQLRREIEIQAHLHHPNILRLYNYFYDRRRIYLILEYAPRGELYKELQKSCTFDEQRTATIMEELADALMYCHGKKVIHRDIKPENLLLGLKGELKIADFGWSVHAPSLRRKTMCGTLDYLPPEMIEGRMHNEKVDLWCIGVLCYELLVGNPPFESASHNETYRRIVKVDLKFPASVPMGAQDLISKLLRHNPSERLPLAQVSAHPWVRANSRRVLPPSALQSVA
measurementContext: at 10 µM
Values of residual activity greater than or equal to 50% map to Fulfilled; values below map to Not fulfilled.

The following molecules have reported results that may help.
For this molecule, is measured residual activity 50% or higher? C[S+]([O-])c1ccc(-c2nc(-c3ccc(F)cc3)c(-c3ccncc3)[nH]2)cc1 (stereo not given)
Fulfilled

Confirm if residual activity reported for the molecule c1cc(-c2cnn3cc(-c4ccc(OCCN5CCCCC5)cc4)cnc23)ccn1 is 50% or above.
Not fulfilled

Assess whether reported residual activity for O=C1NC(=O)c2c1c1c3ccccc3n3c1c1c2c2ccccc2n1C1CCC3O1 sits at 50% or higher.
Not fulfilled

Please indicate if the recorded residual activity for CC(C)(C)c1cc(C=C(C#N)C#N)cc(Br)c1O meets or exceeds 50%.
Not fulfilled

Pending molecule:
State whether the measured residual activity reaches 50%, counting equality as reaching it, for N/C(=N\[N+](=O)[O-])N/N=C\c1ccc(-c2cccc([N+](=O)[O-])c2)o1
Fulfilled
